B1: GFP aptamer (parent)
chain: GCUUCUGGACUGCGAUGGGAGCACGAAACGUCGUGGCGCAAUUGGGUGGGGAAAGUCCUUAAAAGAGGGCCACCACAGAAGC

- Variants of: B1
- METHOD NOTES: HiTS-RAP
- MEASUREMENT CONDITIONS: with EGFP
pKd: −log10 of the molar value.
Listed next: entries and their corresponding pKd.

SEQUENCE CHAIN	pKd
GCUUCUGGACUGCGAUGGGAGCACGAAACGUCGUGGCGCAAUUGGGUGGGGAAAGUCCUUAAAAGAGGGCUACCACAGAAGC [C71U]	7.84
GCUUCUGGACUGCGAUGGGAGCACGAAACGUCGUGGCGCAAUUGGGUGGGGAAAGUCCGUAAAAGAGGGCCACCACAGAAGC [U59G]	8.16
GCUUCUGGACUGCGAUGGGAGCACGAAACGUCGUGGCGCAAUUGGGUGGGGAAAGUCCUUAAAAGAGGGCCACUACAGAAGC [C74U]	8.20
GCUUCUGGUCUGCGAUGGGAGCACGAAACGUCGUGGCGCAAUUGGGUGGGGAAAGUCCUUAAAAGAGGGCCACCACAGAAGC [A9U]	8.16
GCUUCUGGACUGCGAUGGGAGCACGAAACGUCGUGGCGCAAUUGGGUGGGGAAAGUCCUUAAAAGAGGGCCACCACCGAAGC [A77C]	7.82
GCUUCUGGACUGCGAUGGGAGCACGAAACGUCGUGGCGCAAUUGGGUGGGGAAAGUCCUUAAAAGAGGGCCGUCACAGAAGC [A72G C73U]	8.06
GCUUCUGGACUGCGAUGGGAGCACGAAGCGUCGUGGCGCAACUGGGUGGGGAAAGUCCUUAAAAGAGGGCCACCACAGAAGC [A28G U42C]	8.17
GCUUCUGGACUGCAAUGGGAGCACGAAACGUCGUGGCGCAAUUGGGUGGGGAAAGUCCUUAAAAGAGGGCCACCACAGAAGC [G14A]	8.13
GCUUCUGGACUGCGAUGGGAGCACGAAACGUCGUGGCGCAAUUGGGUGGGGAAAGUCCUUAAAAGAGGGCCACCACAGUAGC [A79U]	8.12
GCUUCUGGACCGCGAUGGGAGCACGAAGCGUCGUGGCGCAAUUGGGUGGGGAAAGUCCUUAAAAGAGGGCCACCACAGAAGC [U11C A28G]	7.80
GCUUCUGGACUGAGAUGGGAGCACGAAACGUCGUGGCGCAAUUGGGUGGGGAAAGUCCUUAAAAGAGGGCCACCACAGAAGC [C13A]	7.83
GCUUCUGGACUGCGAUGGGAGCACGAAACGUCGUGGCGCAAUUGGGUGGGGAAAGUCCUUAAAAAAGGGCCACCACAGAAGC [G65A]	7.90
GCUUCUGGACUGCGAUGGGAGCACGAAACGUCGUGGCGCAAUUGGGUGGGGAAAGUCCUUAAAAGAGGGCCACCACAGAACC [G81C]	7.85
GCUUCUGGACUGCGAUGGGAGCACGAAACGUCGUGGCGCAAUUGGGUGGGGAAAGUCCUUAAAAGGGGGCCACUACAGAAGC [A66G C74U]	7.91
GCUUCUGGACUGCGAUGGGAGCACGAAACGUCGUGGCGCAAUUGGGUGGGGAAAGUCCAUAAAAGAGGGCCACCACAGAAGC [U59A]	8.00
GCUUCUGGACUGCGAUGGGAGCAUGAAACGUCGUGGCGCAGUUGGGUGGGGAAAGUCCUUAAAAGAGGGCCACCACAGAAGC [C24U A41G]	7.93
GCUUCUGGACUGCGAUGGGAGCACGAAACGUCGUGGCGCAAUUGGGUGGGGAAAUUCCUUAAAAGAGGGCCACCACAGAAGC [G55U]	8.03
GCUUCUGGACUGCGAUGGGAGCACGAAACGUCGUGGCGCAAUUGGGUGGGGAAAGUCCUUAAAAGAGUGCCACCACAGAAGC [G68U]	7.80
GCUUCUGGACUGCGAUGGGAGCACGAAACGUCGUGGCGCAAUUGGGUGGGGAAAGUCCUUAAAAGUGGGCCACCACAGAAGC [A66U]	8.05
GCUUCUGGACUGCGAUGGGAGCACGAAACGUCGUGGCGCAAUUGGGUGGGGAAAGUCCUCAAAAGAGGGCCACCACAGAAGC [U60C]	7.78
GCUUCUGGACUGCGAUGGGAGCACGAAGCGUCGUGGCGCAAUUGGGUGGGGAAAGUCCUCAAAAGAGGGCCACCACAGAAGC [A28G U60C]	7.86
GCUUCUGGACUGCGAUGGGAGCAAGAAACGUCGUGGCGCAAUUGGGUGGGGAAAGUCCUUAAAAGAGGGCCACCACAGAAGC [C24A]	7.97
GCUUCUGGACUGCGAUGGGGGCACGAAACGUCGUGGCGCAAUUAGGUGGGGAAAGUCCUUAAAAGAGGGCCACCACAGAAGC [A20G G44A]	7.88
GCUUCUGGACUGCGAUGGGAGCACAAAACGUCAUGGCGCAAUUGGGUGGGGAAAGUCCUUAAAAGAGGGCCACCACAGAAGC [G25A G33A]	7.93
GCUUCUGGACUGCGAUGGGAGCAUGAAACGUCGUGGUGCAAUUGGGUGGGGAAAGUCCUUAAAAGAGGGCCACCACAGAAGC [C24U C37U]	8.16
GCUUCUGGACUGCGAUGGGAGCACGAAACGUCGUGGCGCAAUUGGGCGGGGAAAGUCCUUAAAAGAGGGCCACCACAGAAGC [U47C]	8.09
